- Assay Text: Cytotoxicity against MDCK cells assessed as reduction in cell viability after 4 days by MTS assay
- Assay type: cell-based, Canis lupus familiaris
- Measurement Parameters: dog
Define the label as true (1) when CC50 at 96 h is strictly less than 3 µM and as false (0) in all remaining cases.

Exam item: In the record for Cc1c(C(=O)NN2C(=O)C(C)SC23CCCCC3C)[nH]c2ccc(Cl)cc12 (stereo not drawn) , is CC50 at 96 h less than 3 µM?
Marked response: false (0)

Exam item: Quick check: CC50 at 96 h of Cc1c(C(=O)NN2C(=O)CSC23CCCC(C)C3)[nH]c2ccc(Cl)cc12 (stereo not drawn) under 3 µM?
Marked response: false (0)

Exam item: Here's an entry: Cc1c(C(=O)NN2C(=O)CSC23CCC(c2ccccc2)CC3)[nH]c2ccc(Cl)cc12 (stereo not drawn) . Is its CC50 at 96 h below 3 µM?
Marked response: true (1)

Exam item: Field: below-cutoff. Rule: recorded CC50 at 96 h strictly less than 3 µM. Subject: Cc1c(C(=O)NN2C(=O)C(C)SC23CCC(C(C)(C)C)CC3)[nH]c2ccc(Cl)cc12 (stereo not drawn)
Marked response: true (1)

Exam item: For Cc1c(C(=O)NN2C(=O)CSC23CC(C)CC(C)(C)C3)[nH]c2ccc(Cl)cc12 (stereo not drawn) , is the recorded CC50 at 96 h below the cut-off of 3 µM?
Marked response: false (0)

Exam item: Determine whether this compound shows CC50 at 96 h lower than 3 µM (ties excluded): Cc1nc2sccn2c1C(=O)NN1C(=O)C(C)SC12CCC(C)CC2 (stereo not drawn)
Marked response: false (0)

Exam item: Here's an entry: Cc1c(C(=O)NN2C(=O)CSC23CCCCC3)[nH]c2ccc(Cl)cc12 . Is its CC50 at 96 h below 3 µM?
Marked response: false (0)

Exam item: Quick check: CC50 at 96 h of CCCC1CCC2(CC1)SC(C)C(=O)N2NC(=O)c1[nH]c2ccc(Cl)cc2c1C (stereo not drawn) under 3 µM?
Marked response: true (1)

Exam item: Please state whether CC50 at 96 h is below 3 µM for Cc1c(C(=O)NN2C(=O)C(C)SC23CCCC(C)C3)[nH]c2ccc(Cl)cc12 (stereo not drawn)
Marked response: false (0)

Exam item: A record lists Cc1c(C(=O)NN2C(=O)C(C)SC23CCCCC3)[nH]c2ccc(Cl)cc12 (stereo not drawn) . Is its CC50 at 96 h below 3 µM?
Marked response: false (0)

Exam item: Quick check: does Cc1c(C(=O)NN2C(=O)CSC23CCCCC3C)[nH]c2ccc(Cl)cc12 (stereo not drawn) have CC50 at 96 h under 3 µM?
Marked response: false (0)

Exam item: Bench note: check whether CCC1CCC2(CC1)SC(C)C(=O)N2NC(=O)c1[nH]c2ccc(Cl)cc2c1C (stereo not drawn) shows CC50 at 96 h below 3 µM
Marked response: true (1)

Exam item: Does the reported CC50 at 96 h of the following compound sit strictly below 3 µM? NC(=O)c1ncn([C@@H]2O[C@H](CO)[C@@H](O)[C@H]2O)n1
Marked response: false (0)

Exam item: Confirm or reject: CC50 at 96 h of CCC1CCC2(CC1)SCC(=O)N2NC(=O)c1[nH]c2ccc(Cl)cc2c1C (stereo not drawn) lies strictly below 3 µM
Marked response: false (0)

Exam item: Quick check: does Cc1c(C(=O)NN2C(=O)C(C)SC23CCC(C)CC3)[nH]c2ccc(Cl)cc12 (stereo not drawn) have CC50 at 96 h under 3 µM?
Marked response: true (1)

Exam item: Does this compound meet the criterion CC50 at 96 h < 3 µM? NC12CC3CC(CC(C3)C1)C2
Marked response: false (0)

Exam item: Lab note: CC50 at 96 h threshold 3 µM. Does this compound come in strictly under it? Cc1c(C(=O)NN2C(=O)C(C)SC23CCCC3)[nH]c2ccc(Cl)cc12 (stereo not drawn)
Marked response: false (0)

Exam item: Is CC50 at 96 h of Cc1c(C(=O)NN2C(=O)C(C)SC23CCC(c2ccccc2)CC3)[nH]c2ccc(Cl)cc12 (stereo not drawn) strictly below 3 µM?
Marked response: true (1)

Exam item: Determine if Cc1c(C(=O)NN2C(=O)CSC23CCC(C(C)(C)C)CC3)[nH]c2ccc(Cl)cc12 (stereo not drawn) shows CC50 at 96 h strictly lower than 3 µM.
Marked response: true (1)

Exam item: Bench note: check whether CCCC1CCC2(CC1)SCC(=O)N2NC(=O)c1[nH]c2ccc(Cl)cc2c1C (stereo not drawn) shows CC50 at 96 h below 3 µM
Marked response: true (1)

Exam item: Just wondering, is CC50 at 96 h of Cc1c(C(=O)NN2C(=O)CSC23CCCC3)[nH]c2ccc(Cl)cc12 below 3 µM?
Marked response: false (0)

Exam item: Just wondering, is CC50 at 96 h of Cc1c(C(=O)NN2C(=O)CSC23CCC(C)CC3)[nH]c2ccc(Cl)cc12 (stereo not drawn) below 3 µM?
Marked response: false (0)

Exam item: Quick check: does Cc1c(C(=O)NN2C(=O)C(C)SC23CC(C)CC(C)(C)C3)[nH]c2ccc(Cl)cc12 (stereo not drawn) have CC50 at 96 h under 3 µM?
Marked response: false (0)

###

- Assay Text: Cytotoxicity against MDCK cells assessed as minimum cytotoxic concentration after 4 days by MTS assay
- Assay type: cell-based, Canis lupus familiaris
- Measurement Parameters: dog
Experimental Readout: MCC at 96 h

Exam item: For the molecule CCCC1CCC2(CC1)SCC(=O)N2NC(=O)c1[nH]c2ccc(Cl)cc2c1C (stereo not given) , report MCC at 96 h.
Marked response: 0.8 µM

Exam item: Query MCC at 96 h for CCCC1CCC2(CC1)SC(C)C(=O)N2NC(=O)c1[nH]c2ccc(Cl)cc2c1C (stereo not given)
Marked response: 0.8 µM

Exam item: Give me measured MCC at 96 h, please, for this molecule: Cc1c(C(=O)NN2C(=O)CSC23CCCCC3C)[nH]c2ccc(Cl)cc12 (stereo not given)
Marked response: ≥ 20 µM

Exam item: Specify reported MCC at 96 h for the molecule shown: Cc1c(C(=O)NN2C(=O)CSC23CC(C)CC(C)(C)C3)[nH]c2ccc(Cl)cc12 (stereo not given)
Marked response: > 100 µM

Exam item: Please report the measured MCC at 96 h for Cc1c(C(=O)NN2C(=O)CSC23CCCC(C)C3)[nH]c2ccc(Cl)cc12 (stereo not given)
Marked response: ≥ 100 µM

Exam item: Give a short answer stating reported MCC at 96 h for NC12CC3CC(CC(C3)C1)C2 [AMANTADINE] .
Marked response: > 200 µM

Exam item: Consider the molecule Cc1c(C(=O)NN2C(=O)C(C)SC23CCCCC3C)[nH]c2ccc(Cl)cc12 (stereo not given) . State its measured MCC at 96 h.
Marked response: ≥ 20 µM

Exam item: State its MCC at 96 h for this molecule: Cc1c(C(=O)NN2C(=O)C(C)SC23CCC(c2ccccc2)CC3)[nH]c2ccc(Cl)cc12 (stereo not given)
Marked response: 1 µM

Exam item: Give the measured MCC at 96 h for Cc1c(C(=O)NN2C(=O)CSC23CCCC3)[nH]c2ccc(Cl)cc12
Marked response: > 100 µM

Exam item: Find the measured MCC at 96 h of NC(=O)c1ncn([C@@H]2O[C@H](CO)[C@@H](O)[C@H]2O)n1 [RIBAVIRIN] and report it.
Marked response: ≥ 100 µM

Exam item: Give me measured MCC at 96 h, please, for this molecule: CCC1CCC2(CC1)SCC(=O)N2NC(=O)c1[nH]c2ccc(Cl)cc2c1C (stereo not given)
Marked response: ≥ 4 µM

Exam item: Determine from records and report MCC at 96 h for Cc1c(C(=O)NN2C(=O)C(C)SC23CCCC3)[nH]c2ccc(Cl)cc12 (stereo not given)
Marked response: > 100 µM

Exam item: Determine its reported MCC at 96 h: Cc1c(C(=O)NN2C(=O)C(C)SC23CCCC(C)C3)[nH]c2ccc(Cl)cc12 (stereo not given)
Marked response: ≥ 4 µM

Exam item: Return value of MCC at 96 h for input Cc1nc2sccn2c1C(=O)NN1C(=O)C(C)SC12CCC(C)CC2 (stereo not given) , no commentary.
Marked response: ≥ 100 µM

Exam item: Consider the molecule Cc1c(C(=O)NN2C(=O)CSC23CCC(C)CC3)[nH]c2ccc(Cl)cc12 (stereo not given) . State its measured MCC at 96 h.
Marked response: ≥ 100 µM

Exam item: Quickly give me recorded MCC at 96 h for Cc1c(C(=O)NN2C(=O)CSC23CCC(c2ccccc2)CC3)[nH]c2ccc(Cl)cc12 (stereo not given)
Marked response: 5 µM

Exam item: For Cc1c(C(=O)NN2C(=O)C(C)SC23CCCCC3)[nH]c2ccc(Cl)cc12 (stereo not given) , write its MCC at 96 h.
Marked response: ≥ 4 µM

Exam item: Entry Cc1c(C(=O)NN2C(=O)C(C)SC23CCC(C(C)(C)C)CC3)[nH]c2ccc(Cl)cc12 (stereo not given) needs its MCC at 96 h filled in; supply it.
Marked response: ≥ 4 µM

Exam item: Give the measured MCC at 96 h for Cc1c(C(=O)NN2C(=O)CSC23CCC(C(C)(C)C)CC3)[nH]c2ccc(Cl)cc12 (stereo not given)
Marked response: 0.8 µM

Exam item: Quick one: give measured MCC at 96 h for Cc1c(C(=O)NN2C(=O)C(C)SC23CC(C)CC(C)(C)C3)[nH]c2ccc(Cl)cc12 (stereo not given)
Marked response: 20 µM
